Just for reference, patent US9926293B2 is where these values come from.

# System under test: GDP-bound KRAS^G12D (Homo sapiens, UniProt P01116, G12D)
# Sequence (P01116 1-169 isoform P01116-2 G12D): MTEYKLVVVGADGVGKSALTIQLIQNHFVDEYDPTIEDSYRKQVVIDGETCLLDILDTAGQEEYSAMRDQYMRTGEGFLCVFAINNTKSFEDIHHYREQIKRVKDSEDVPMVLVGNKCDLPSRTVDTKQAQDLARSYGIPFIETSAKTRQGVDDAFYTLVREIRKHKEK
# Run description: Binding to KRAS and measurement of dissociation constants (FIG. 4B-4C), GDP-bound
# Stated conditions: read-out: dissociation constant KD
Measurement kind: pKd
Give bare numbers, as −log10 of the molar value.

INPUT: Please look up its pKd: NCCC[C@@H](NC(=O)CN1CCCNCC1)C(=O)NC1Cc2ccccc2C1
OUTPUT: 2.15

###

# System under test: GppNHp-loaded KRASG12D (Homo sapiens, UniProt P01116, G12D)
# Construct: made in house; host or cells: Escherichia coli BL21-Gold (DE3)
# Sequence (P01116 1-169 isoform P01116-2 G12D): as above
# Run description: Microscale thermophoresis, lysine NT-647-labeled GppNHp-loaded KRAS^G12D
# Type: binding
# Stated conditions: MST, GppNHp-loaded KRAS^G12D; 34MEW43 and 34MEW95 estimated, no full dose-response curve; read-out: dissociation constant KD
# Protocol: Microscale Thermophoresis […] In another set of experiments, the top D38-A59 two-site multivalent compounds were evaluated by a RAS pulldown using the RAS binding domain of CRAF (the top two hits are shown in FIG. 14D). […] To quantify the binding of the two-site compounds to RAS, MST was performed again using lysine NT-647-labeled, GppNHp-loaded KRAS^G12D. […]
Measurement kind: pKd
Answers are plain numbers, as −log10 of the molar value.

INPUT: Given the entry NC1(C(=O)NCCCn2cc(-c3ccc(OC(F)(F)F)cc3)c3cc(CN4CCN(Cc5c(Cl)cccc5Cl)CC4)ccc32)CCNCC1 , what pKd was observed with GppNHp-loaded KRASG12D (Homo sapiens, UniProt P01116, G12D)?
OUTPUT: 5.05

###

# Tested on: BJeLR (HRAS G12V)
# Run description: Cell viability assay (384-well, Alamar blue)
# Assay type: cell-based
# Stated conditions: 48 h, Table 8, 384-well, alamar blue
# Experimental: All cell culture assays were incubated at 37° C., 5% CO2 in media containing Dulbecco's Modified Eagle Medium (DMEM) with 10% fetal bovine serum (FBS) and 1% penicillin-streptomycin (PS). 384-well format for EC50 determination: cells were trypsinized, counted, and seeded into 384-well plates at 1,000 cells/well. […] After 6 hours of incubation, fluorescence intensity was determined using a Victor3 plate reader (Perkin Elmer) with a 535 nm excitation filter and a 590 nm emission filter. […]
Measurement kind: pEC50
Answers are plain numbers, as −log10 of the molar value.

{"Mol smiles": "NC1(C(=O)NCCCn2cc(-c3ccc(OC(F)(F)F)cc3)c3cc(CN4CCN(Cc5c(Cl)cccc5Cl)CC4)ccc32)CCNCC1", "pEC50": 5.40}

Next compound, pEC50 to be filled in.
INPUT: Please look up its pEC50: NC1(C(=O)NCCCn2cc(-c3cccc(F)c3)c3c(CN4CCN(CCOc5ccc(Cl)cc5)CC4)cccc32)CCNCC1
OUTPUT: 5.01

###

# Tested on: Panc-1 (KRAS G12D)
# Run description: Cell viability assay (384-well, Alamar blue)
# Type: cell-based
# Stated conditions: Homo sapiens, PANC-1, 48 h, Table 8, 384-well, alamar blue
For each record, write down the corresponding pEC50.
One number for each entry, as −log10 of the molar value.

{"Compound": "NC1(C(=O)NCCCn2cc(-c3cccc(F)c3)c3c(CN4CCN(CCOc5ccc(Cl)cc5)CC4)cccc32)CCNCC1 [Compound 34MEW43]", "Value": 5.22}

INPUT: Given the entry NC1(C(=O)NCCCn2cc(-c3ccc(OC(F)(F)F)cc3)c3cc(CN4CCN(Cc5c(Cl)cccc5Cl)CC4)ccc32)CCNCC1 [Compound 31MEW44] , what pEC50 was observed with Panc-1 (KRAS G12D)?
OUTPUT: 5.29
